src = patent US20220033501A1

Mean fluorescence intensity values, listed per item
Target: T1, monkey TIM-3 on CHOK1 stable cell line (CHOK1-cTIM-3) (monkey)
T1 chain: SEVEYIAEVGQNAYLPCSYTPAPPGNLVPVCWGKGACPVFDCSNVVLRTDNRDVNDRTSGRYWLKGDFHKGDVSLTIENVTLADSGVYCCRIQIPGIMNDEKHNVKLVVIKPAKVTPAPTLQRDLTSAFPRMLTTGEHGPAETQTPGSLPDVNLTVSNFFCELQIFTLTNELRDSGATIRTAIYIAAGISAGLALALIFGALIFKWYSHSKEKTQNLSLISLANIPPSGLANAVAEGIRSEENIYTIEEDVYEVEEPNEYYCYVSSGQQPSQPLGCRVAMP
Experiment: FACS, CHOK1-cTIM-3 cells, 0 nM antibody

Solved cases below.
# Binder, Recorded Measurement
data = [
    ("39E5H1 fully human TIM-3 antibody (human IgG4, kappa) (antibody, V domains shown) VH: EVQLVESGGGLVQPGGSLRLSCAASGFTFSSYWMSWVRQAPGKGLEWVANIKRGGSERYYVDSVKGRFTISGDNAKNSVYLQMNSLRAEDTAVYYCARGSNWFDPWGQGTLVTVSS VL: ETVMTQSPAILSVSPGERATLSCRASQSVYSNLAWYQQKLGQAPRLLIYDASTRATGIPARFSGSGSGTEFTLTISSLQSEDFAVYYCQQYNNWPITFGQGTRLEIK", 3),
    ("57F4E5 fully human TIM-3 antibody (human IgG4, kappa) (antibody, V domains shown) VH: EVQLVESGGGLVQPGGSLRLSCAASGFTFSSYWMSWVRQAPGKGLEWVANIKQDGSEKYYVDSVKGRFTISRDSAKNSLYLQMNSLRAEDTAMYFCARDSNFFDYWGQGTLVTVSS VL: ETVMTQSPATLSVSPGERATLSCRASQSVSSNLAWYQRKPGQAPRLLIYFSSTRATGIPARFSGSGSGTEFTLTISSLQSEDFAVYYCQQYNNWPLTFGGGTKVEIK", 2.9),
    ("7A4F10 fully human TIM-3 antibody (human IgG4, kappa) (antibody, V domains shown) VH: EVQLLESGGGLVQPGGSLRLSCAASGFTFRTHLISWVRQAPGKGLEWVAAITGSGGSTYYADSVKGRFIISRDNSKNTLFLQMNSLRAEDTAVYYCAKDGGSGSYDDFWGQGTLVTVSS VL: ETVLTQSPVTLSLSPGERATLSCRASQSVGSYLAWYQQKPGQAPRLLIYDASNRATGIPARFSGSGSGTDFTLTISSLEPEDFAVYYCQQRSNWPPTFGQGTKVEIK", 2.8),
    ("134H3G6 fully human TIM-3 antibody (human IgG4, kappa) (antibody, V domains shown) VH: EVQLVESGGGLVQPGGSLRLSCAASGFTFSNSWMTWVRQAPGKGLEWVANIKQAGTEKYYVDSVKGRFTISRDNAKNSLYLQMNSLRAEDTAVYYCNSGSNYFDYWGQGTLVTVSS VL: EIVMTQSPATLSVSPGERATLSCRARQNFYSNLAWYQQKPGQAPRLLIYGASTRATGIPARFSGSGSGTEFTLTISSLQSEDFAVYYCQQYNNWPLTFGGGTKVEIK", 2.9),
    ("18D2H2 fully human TIM-3 antibody (human IgG4, kappa) (antibody, V domains shown) VH: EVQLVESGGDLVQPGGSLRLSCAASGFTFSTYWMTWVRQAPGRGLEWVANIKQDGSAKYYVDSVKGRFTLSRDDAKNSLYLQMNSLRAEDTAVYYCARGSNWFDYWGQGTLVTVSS VL: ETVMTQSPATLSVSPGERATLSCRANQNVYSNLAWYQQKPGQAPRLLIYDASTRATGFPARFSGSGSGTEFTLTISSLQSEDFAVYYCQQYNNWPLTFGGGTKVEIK", 2.8),
]

Read the next record carefully.
q: Fill in the blank: the reported Mean fluorescence intensity of 34B6D8 fully human TIM-3 antibody (human IgG4, kappa) (antibody, V domains shown) VH: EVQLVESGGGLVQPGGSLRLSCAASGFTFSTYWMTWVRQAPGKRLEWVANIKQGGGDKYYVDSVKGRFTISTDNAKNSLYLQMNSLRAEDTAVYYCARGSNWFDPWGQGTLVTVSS VL: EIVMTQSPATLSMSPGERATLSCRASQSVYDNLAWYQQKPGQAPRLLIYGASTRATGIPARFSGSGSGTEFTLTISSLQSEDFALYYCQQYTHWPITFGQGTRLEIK is ____.
a: 2.9
